Ref: paper PMC5540273

Tested on: ERK1
Construct: gene MAPK3
condition.parameters: concentration: 1 μM,replicates: in singlicate; n = 1;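 further: KINOMEscan kinase panel screen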
measured.endpoint: %Inh (%)
Field format: number, assumed %, no unit text.

[[record]]
compound = "N#Cc1cccc(C(=O)NC2CCN(c3ccnc(Nc4ccc(F)cc4)n3)C2)c1 (stereo not drawn) [GSK1379708]"
test_target = "ERK1"
quantitative_readout = 0

[[record]]
compound = "CC(C)c1nc(-c2cccc(NS(=O)(=O)c3ccccc3)c2)c(-c2ccnc(Nc3ccc4c(c3)CN(C)CC4)n2)s1 [GSK1649598]"
test_target = "ERK1"
quantitative_readout = 0

[[record]]
compound = "COc1cc2c(Nc3ccc(NC(=O)c4ccccc4)cc3)ncnc2cc1OCCCN1CCOCC1 [GSK301329]"
test_target = "ERK1"
quantitative_readout = 4


Next up:
Bench note, ERK1: entry NC(=O)Nc1sc(-c2ccc(F)cc2)cc1C(N)=O [GW789449] , its %Inh = 0

###

Tested on: JAK1(JH2domain-pseudokinase)
condition.parameters: concentration: 1 μM,replicates: in singlicate; n = 1
So basically, if %Inh comes in under 20% it's yes, and if it's 20% or more it's no.

[[record]]
compound = "CCCC(=O)Nc1n[nH]c2ncccc12"
assigned_label = "yes"

[[record]]
compound = "CN1CCN(CCNc2nc3cc(Oc4ccc(NC(=O)Nc5cc(C(F)(F)F)ccc5F)cc4)ccc3[nH]2)CC1.Cl.Cl"
assigned_label = "yes"

[[record]]
compound = "CN(c1ccccc1CNc1nc(Nc2ccc3c(c2)CC(=O)N3)ncc1C(F)(F)F)S(C)(=O)=O"
assigned_label = "no"

[[record]]
compound = "Cc1cccc2c(-c3ccncc3)c(-c3ccc(F)cc3)nn12.Cl"
assigned_label = "yes"

[[record]]
compound = "CC(=O)c1c(-c2ccncc2)[nH]c(-c2ccncc2)c1C"
assigned_label = "yes"


Ask: Does CC(C)c1nc(-c2cccc(NS(=O)(=O)c3ccccc3)c2)c(-c2ccnc(Nc3ccc4c(c3)CN(C)CC4)n2)s1 have %Inh strictly under 20%?
Reply: yes

Ask: Does FC(F)(F)c1cc(Br)cc(Nc2nccc(-c3cnn4ncccc34)n2)c1 have %Inh strictly under 20%?
Reply: no

Ask: Does O=c1[nH]cc(-c2ccc(O)cc2)c2sc(-c3ccncc3)cc12 have %Inh strictly under 20%?
Reply: yes

Ask: Does CN(c1ccc2c(c1)nc(NCc1ccc(F)cc1)n2C)c1ccnc(Nc2ccc(CS(C)(=O)=O)cc2)n1.Cl have %Inh strictly under 20%?
Reply: no

Ask: Does Cn1ccc2ncnc(Oc3ccc(NC(=O)Nc4cc(C(C)(C)C)on4)c(Cl)c3)c21 have %Inh strictly under 20%?
Reply: yes

Ask: Does COC(=O)Nc1nc2cc(Oc3ccc(NC(=O)Nc4cc(C(F)(F)F)ccc4Cl)cc3)ccc2[nH]1.Cl have %Inh strictly under 20%?
Reply: yes

Ask: Does C[C@@H]1CNc2c(sc3ccc4nc(-c5ccc(O)cc5)ccc4c23)C(=O)N1 have %Inh strictly under 20%?
Reply: no

Ask: Does CC(=O)Nc1ccc(-c2cc3ncnc(SCC(=O)O)c3s2)cc1 have %Inh strictly under 20%?
Reply: yes

Ask: Does Cc1ccn2nc(-c3ccc(F)cc3)c(-c3ccncc3)c2c1.Cl have %Inh strictly under 20%?
Reply: no

Ask: Does Cc1n[nH]c2cc(Nc3ccnc(Nc4cccc(CN5CCOCC5)c4)n3)ccc12 have %Inh strictly under 20%?
Reply: no

Ask: Does Cn1ccc2ncnc(Oc3ccc(NC(=O)Nc4cnn(C(C)(C)C)c4)c(Cl)c3)c21 have %Inh strictly under 20%?
Reply: yes

Ask: Does Cc1nnc(-c2ccc3occ(-c4ccc(S(C)=O)cc4)c3n2)o1 (stereo not drawn) have %Inh strictly under 20%?
Reply: yes

Ask: Does CCn1c(-c2nonc2N)nc2cncc(CNC3CCNCC3)c21.Cl have %Inh strictly under 20%?
Reply: yes
